Data origin, for the record: patent US12559492B2

target: BRAF^V600E protein (Homo sapiens, UniProt P15056, V600E); experiment: HiBiT cellular BRAF V600E degradation assay; assay type: cell-based; details: A375.10 cells, 24 h incubation; Emax = amount of residual protein remaining in the cell after compound treatment; read-out: HiBit 24 h Emax
Sequence (P15056 whole entry V600E): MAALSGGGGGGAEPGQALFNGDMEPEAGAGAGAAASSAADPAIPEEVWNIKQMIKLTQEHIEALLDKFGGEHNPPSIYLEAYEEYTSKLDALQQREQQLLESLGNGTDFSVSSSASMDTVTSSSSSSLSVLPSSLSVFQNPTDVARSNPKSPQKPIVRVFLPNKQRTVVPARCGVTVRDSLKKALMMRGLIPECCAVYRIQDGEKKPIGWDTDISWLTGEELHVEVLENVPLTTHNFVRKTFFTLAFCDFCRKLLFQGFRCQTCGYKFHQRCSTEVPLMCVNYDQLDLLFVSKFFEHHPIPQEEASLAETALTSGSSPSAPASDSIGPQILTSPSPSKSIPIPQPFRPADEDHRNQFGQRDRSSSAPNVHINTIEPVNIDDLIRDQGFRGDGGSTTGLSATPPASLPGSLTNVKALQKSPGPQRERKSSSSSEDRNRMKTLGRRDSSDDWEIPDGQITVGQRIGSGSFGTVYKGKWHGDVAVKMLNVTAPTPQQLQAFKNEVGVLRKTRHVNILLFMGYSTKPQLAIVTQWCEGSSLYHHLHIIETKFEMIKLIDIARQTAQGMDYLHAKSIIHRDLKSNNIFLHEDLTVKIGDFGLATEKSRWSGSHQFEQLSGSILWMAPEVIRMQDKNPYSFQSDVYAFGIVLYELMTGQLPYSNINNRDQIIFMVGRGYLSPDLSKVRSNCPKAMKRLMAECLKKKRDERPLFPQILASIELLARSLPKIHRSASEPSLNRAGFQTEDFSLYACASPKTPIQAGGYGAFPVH
Kindly supply the reported Emax values for the records listed here.

MOLECULE: CCN(C)S(=O)(=O)Nc1ccc(F)c(C(=O)c2c[nH]c3ncc(-c4ccc(N5CCN(C(=O)CN(C)C(=O)Cc6ccc(NC7CCC(=O)NC7=O)cc6)CC5)nc4)cc23)c1F (stereo not drawn)
Emax: 18%

MOLECULE: CC(C)S(=O)(=O)Nc1ccc(F)c(C(=O)c2c[nH]c3ncc(-c4cnc(N5CCN(C(=O)CN6CCC(c7ccc(C8CCC(=O)NC8=O)cc7)CC6)CC5)nc4)cc23)c1F (stereo not drawn)
Emax: 2.37%

Please find the next molecule below.
Given the molecule CCN(C)S(=O)(=O)Nc1cccc(C(=O)c2c[nH]c3ncc(-c4ccc(N5CCN(C(=O)CN6CCC(c7ccc(OC8CCC(=O)NC8=O)cc7)CC6)CC5)nc4)cc23)c1F (stereo not drawn) , what is its reported Emax? 11.4%
